# System: HCT-15 colon
# procedure.summary: NCI tumour cell line growth inhibition, 48 h; in the data active means GI50 below about 0.43 µM; inactive means the rest
Answer with one of the outcomes Y for active, N for inactive

Examples from the recorded data:
# compound, cat
data = [
    ("Cc1n(Cc2ccc3ccccc3n2)cc[n+]1Cc1ccc2ccccc2c1", "N"),
    ("O=C(/C=C/c1cccc(Oc2ccc(Cl)cc2)c1)c1ccccc1", "N"),
    ("Nc1ccn([C@@H]2S[C@H](CO)[C@@H](O)[C@@H]2F)c(=O)n1", "Y"),
    ("Cc1cn2c(/C=C3/C(=O)Nc4ccc(C(=O)O)cc43)c(C)nc2s1", "N"),
    ("CC1(C)CC(O)CC(C)(C)N1.CC1(C)CC(O)CC(C)(C)N1.CC1(C)CC(O)CC(C)(C)N1.CC1(C)CC(O)CC(C)(C)N1.Cl.[Ti]", "N"),
]

For the next question, use this compound.
Input: What was the test verdict on CC(C)C/C(=N\NC(=O)c1ccncc1)c1cc(Cl)ccc1O ?
Output: Y
